The measurements presented in this section are drawn from ChEMBL document CHEMBL2062370.

# Tgt: Aurora kinase A (Homo sapiens, UniProt O14965)
# Assay Protocol: Inhibition of human recombinant AurKA by FRET assay
Measurement Label: IC50

Below, 3 molecules whose answers are already recorded.
Molecule	Value Reported
COC(=O)c1ccc(CSc2nnc(-c3ccc4c(c3)OCCO4)o2)cc1	> 100 µM
N#Cc1cc(F)ccc1-c1ccc(CSc2nnc(-c3ccc4c(c3)OCO4)o2)cc1	30 µM
COC[C@H]1COc2ccc(-c3nnc(SCc4ccc(-c5ccccc5C#N)cc4)o3)cc2O1	> 100 µM

Q: Determine its reported IC50: N#Cc1ccc(-c2ccc(CSc3nnc(-c4ccc5c(c4)OCO5)o3)cc2)cc1
A: 30 µM

###

# Tgt: Glycogen synthase kinase-3 beta (Homo sapiens, UniProt P49841)
# Sequence (P49841 whole entry): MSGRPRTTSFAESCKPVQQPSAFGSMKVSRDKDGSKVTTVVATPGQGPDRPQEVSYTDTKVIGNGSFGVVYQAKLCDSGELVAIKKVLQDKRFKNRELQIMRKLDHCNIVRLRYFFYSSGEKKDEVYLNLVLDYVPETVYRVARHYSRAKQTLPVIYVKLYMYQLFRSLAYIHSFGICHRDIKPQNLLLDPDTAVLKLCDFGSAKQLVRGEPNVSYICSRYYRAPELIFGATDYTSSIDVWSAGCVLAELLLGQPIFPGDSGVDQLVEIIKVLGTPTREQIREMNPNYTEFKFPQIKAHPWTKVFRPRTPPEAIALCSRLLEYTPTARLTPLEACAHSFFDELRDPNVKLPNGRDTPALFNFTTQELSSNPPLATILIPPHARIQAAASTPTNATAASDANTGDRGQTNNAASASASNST
# Assay Protocol: Inhibition of human recombinant GSK3beta
Entries and their IC50
# number only, unit nM dropped from output

Compound	IC50 / nM
N#Cc1cccc(CSc2nnc(-c3ccc4c(c3)OCCO4)o2)c1	86

Q: Indicate its recorded IC50; the compound in question is COCC1COc2ccc(-c3nnc(SCc4ccc(-c5ccccc5C#N)cc4)o3)cc2O1 (racemic)
A: 233

Q: Identify IC50 associated with the compound c1ccc(-c2ccc(CSc3nnc(-c4ccc5c(c4)OCO5)o3)cc2)cc1
A: 176

Q: Write down IC50 measured for item N#Cc1ccc(CSc2nnc(-c3ccncc3)o2)cc1
A: 10000

Q: Specify measured IC50 for N#Cc1cccc(CSc2nnc(-c3ccc4c(c3)OCO4)o2)c1 .
A: 65

Q: Write down IC50 measured for item c1cc(-c2nnn[nH]2)ccc1CSc1nnc(-c2ccc3c(c2)OCO3)o1
A: 172

Q: Provide IC50 value for the following compound: N#Cc1cc(F)ccc1-c1ccc(CSc2nnc(-c3ccc4c(c3)OCO4)o2)cc1
A: 22

Q: Hello, please tell me recorded IC50 for this one: N#Cc1ccccc1-c1ccc(CSc2nnc(-c3ccc4c(c3)OCO4)o2)cc1
A: 39

Q: Please supply the value of reported IC50 for the item COC[C@H]1COc2ccc(-c3nnc(SCc4ccc(-c5ccccc5C#N)cc4)o3)cc2O1
A: 129

Q: Look up and state reported IC50 for N#Cc1ccc(CSc2nnc(-c3ccc4c(c3)OCO4)o2)cc1
A: 130

###

As shown below, each of these molecules has a reported pIC50 value.
# Tgt: Glycogen synthase kinase-3 alpha (Homo sapiens, UniProt P49840)
# Sequence (P49840 whole entry): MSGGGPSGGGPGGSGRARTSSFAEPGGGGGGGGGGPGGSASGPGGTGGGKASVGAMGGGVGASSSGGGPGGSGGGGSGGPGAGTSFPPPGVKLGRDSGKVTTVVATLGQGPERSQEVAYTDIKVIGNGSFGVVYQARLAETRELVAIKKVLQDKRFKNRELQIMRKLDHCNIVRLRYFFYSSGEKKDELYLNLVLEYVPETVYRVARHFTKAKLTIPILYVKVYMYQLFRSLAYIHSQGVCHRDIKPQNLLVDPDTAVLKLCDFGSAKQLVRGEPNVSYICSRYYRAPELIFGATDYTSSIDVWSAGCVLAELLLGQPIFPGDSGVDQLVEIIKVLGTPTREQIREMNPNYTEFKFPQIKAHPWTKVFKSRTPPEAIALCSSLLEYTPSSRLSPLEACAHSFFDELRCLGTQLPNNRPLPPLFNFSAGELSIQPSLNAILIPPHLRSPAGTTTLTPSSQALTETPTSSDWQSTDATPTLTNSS
# Assay Protocol: Inhibition of human recombinant GSK3alpha
FYI, pIC50 means -log10 of a concentration in mol per litre.

Molecule	Tgt	pIC50
N#Cc1ccc(CSc2nnc(-c3ccncc3)o2)cc1	Glycogen synthase kinase-3 alpha (Homo sapiens, UniProt P49840)	5.13

Q: Give pIC50 for the following molecule: c1cc(-c2nnn[nH]2)ccc1CSc1nnc(-c2ccc3c(c2)OCO3)o1
A: 6.97

Q: Identify measured pIC50 associated with N#Cc1cc(F)ccc1-c1ccc(CSc2nnc(-c3ccc4c(c3)OCO4)o2)cc1
A: 8.52

Q: Tell me measured pIC50 for COCC1COc2ccc(-c3nnc(SCc4ccc(-c5ccccc5C#N)cc4)o3)cc2O1 (racemic) please.
A: 7.27

Q: Consider the molecule N#Cc1cccc(CSc2nnc(-c3ccc4c(c3)OCCO4)o2)c1 and give its recorded pIC50.
A: 7.02

Q: Provide measured pIC50 value, entry: N#Cc1ccc(CSc2nnc(-c3ccc4c(c3)OCCO4)o2)cc1
A: 7.35

Q: Entry c1ccc(CSc2nnc(-c3ccncc3)o2)cc1 needs its pIC50 filled in; supply it.
A: 5.65

Q: State its pIC50: c1ccc(-c2ccc(CSc3nnc(-c4ccc5c(c4)OCO5)o3)cc2)cc1
A: 8.05

Q: Give the reported pIC50 for this molecule. COC[C@@H]1COc2ccc(-c3nnc(SCc4ccc(-c5ccccc5C#N)cc4)o3)cc2O1
A: 6.71

Q: Give recorded pIC50. Ic1cccc(CSc2nnc(-c3ccncc3)o2)c1
A: 6.41

###

# Tgt: Glycogen synthase kinase-3 beta (Homo sapiens)
# Assay Protocol: Inhibition of human recombinant GSK3beta
pIC50: −log10 of the molar value.
Decide by pIC50: equal to or exceeding 6 means Satisfied, less means Not satisfied.

Q: Answer whether pIC50 of N#Cc1ccc(CSc2nnc(-c3ccc4c(c3)OCCO4)o2)cc1 is greater than or equal to 6.
A: Satisfied

Q: // inclusive: pIC50 at least 6? input: N#Cc1ccccc1-c1ccc(CSc2nnc(-c3ccc4c(c3)OCCO4)o2)cc1
A: Satisfied

Q: Is pIC50 for N#Cc1cccc(CSc2nnc(-c3ccncc3)o2)c1 at or above 6?
A: Not satisfied

Q: Kindly determine if pIC50 recorded for N#Cc1ccccc1-c1ccc(CSc2nnc(-c3ccncc3)o2)cc1 is above or exactly 6.
A: Satisfied

###

IC50 overview
# Tgt: Casein kinase I isoform epsilon (Homo sapiens, UniProt P49674)
# Sequence (P49674 whole entry, canonical isoform): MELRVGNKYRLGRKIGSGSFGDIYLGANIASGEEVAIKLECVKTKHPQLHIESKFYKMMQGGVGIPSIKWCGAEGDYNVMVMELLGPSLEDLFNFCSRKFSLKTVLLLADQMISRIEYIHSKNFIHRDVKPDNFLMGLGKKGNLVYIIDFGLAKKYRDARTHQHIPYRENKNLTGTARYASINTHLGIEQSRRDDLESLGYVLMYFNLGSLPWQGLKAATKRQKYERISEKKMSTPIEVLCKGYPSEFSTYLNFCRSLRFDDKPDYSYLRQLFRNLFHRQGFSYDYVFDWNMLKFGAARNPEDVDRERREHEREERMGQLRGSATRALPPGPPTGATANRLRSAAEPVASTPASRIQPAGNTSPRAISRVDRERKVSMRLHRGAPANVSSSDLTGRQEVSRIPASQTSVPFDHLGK
# Assay Protocol: Inhibition of human recombinant CK1epsilon by FRET assay

Molecule	IC50
COC(=O)c1ccc(CSc2nnc(-c3ccc4c(c3)OCCO4)o2)cc1	> 100 µM

Q: Answer with reported IC50 of N#Cc1cc(F)ccc1-c1ccc(CSc2nnc(-c3ccc4c(c3)OCCO4)o2)cc1
A: > 100 µM

Q: Name the recorded IC50 of the molecule listed here: N#Cc1ccccc1-c1ccc(CSc2nnc(-c3ccc4c(c3)OCO4)o2)cc1
A: > 100 µM

Q: Read the entry c1ccc(-c2ccc(CSc3nnc(-c4ccc5c(c4)OCO5)o3)cc2)cc1 and write its reported IC50.
A: > 100 µM

Q: State its IC50: N#Cc1ccc(-c2ccc(CSc3nnc(-c4ccc5c(c4)OCO5)o3)cc2)cc1
A: 60 µM

Q: Tell me measured IC50 for N#Cc1cc(F)ccc1-c1ccc(CSc2nnc(-c3ccc4c(c3)OCO4)o2)cc1 please.
A: 20 µM

Q: Answer with the recorded IC50 for the molecule listed here: COCC1COc2ccc(-c3nnc(SCc4ccc(-c5ccccc5C#N)cc4)o3)cc2O1 (racemic)
A: > 100 µM

Q: Determine from records and report IC50 for N#Cc1ccccc1-c1ccc(CSc2nnc(-c3ccc4c(c3)OCCO4)o2)cc1
A: > 100 µM

Q: Quickly give me recorded IC50 for COC[C@@H]1COc2ccc(-c3nnc(SCc4ccc(-c5ccccc5C#N)cc4)o3)cc2O1
A: > 100 µM

Q: Hello, please tell me recorded IC50 for this one: COC[C@H]1COc2ccc(-c3nnc(SCc4ccc(-c5ccccc5C#N)cc4)o3)cc2O1
A: > 100 µM

Q: # return recorded IC50 for entry N#Cc1ccccc1-c1ccc(CSc2nnc(-c3ccncc3)o2)cc1
A: > 100 µM

###

# Tgt: Glycogen synthase kinase-3 alpha (Homo sapiens)
# Assay Protocol: Inhibition of human recombinant GSK3alpha
Below, each of the compounds is paired with its reported IC50 value.
Number in nM, nothing else.

N#Cc1cccc(CSc2nnc(-c3ccc4c(c3)OCO4)o2)c1 15

Now, please, on to the next compound.
Q: Return the recorded IC50 value; entry: N#Cc1ccccc1-c1ccc(CSc2nnc(-c3ccncc3)o2)cc1
A: 19

###

# Tgt: Aurora kinase A (Homo sapiens, UniProt O14965)
# Sequence (O14965 whole entry): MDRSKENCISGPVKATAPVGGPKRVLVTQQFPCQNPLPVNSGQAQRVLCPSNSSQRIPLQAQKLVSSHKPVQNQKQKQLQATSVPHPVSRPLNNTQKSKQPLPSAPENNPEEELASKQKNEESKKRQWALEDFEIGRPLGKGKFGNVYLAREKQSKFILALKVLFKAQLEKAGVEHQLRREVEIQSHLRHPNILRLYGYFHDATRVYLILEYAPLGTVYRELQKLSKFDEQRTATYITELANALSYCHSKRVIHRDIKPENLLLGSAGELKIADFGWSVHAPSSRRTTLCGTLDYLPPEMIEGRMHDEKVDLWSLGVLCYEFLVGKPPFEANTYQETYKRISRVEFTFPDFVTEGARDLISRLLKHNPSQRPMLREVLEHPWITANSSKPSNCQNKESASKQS
# Assay Protocol: Inhibition of human recombinant AurKA by FRET assay
Measurement Label: IC50

Sample records with IC50:
Compound	IC50
COCC1COc2ccc(-c3nnc(SCc4ccc(-c5ccccc5C#N)cc4)o3)cc2O1 (racemic)	30 µM
N#Cc1ccccc1-c1ccc(CSc2nnc(-c3ccc4c(c3)OCCO4)o2)cc1	> 100 µM
COC[C@@H]1COc2ccc(-c3nnc(SCc4ccc(-c5ccccc5C#N)cc4)o3)cc2O1	> 100 µM

Q: Identify IC50 associated with the compound N#Cc1ccccc1-c1ccc(CSc2nnc(-c3ccc4c(c3)OCO4)o2)cc1
A: > 100 µM

Q: Answer with the recorded IC50 for the compound listed here: c1ccc(-c2ccc(CSc3nnc(-c4ccc5c(c4)OCO5)o3)cc2)cc1
A: > 100 µM

Q: Please look at this compound and report its IC50: N#Cc1cc(F)ccc1-c1ccc(CSc2nnc(-c3ccc4c(c3)OCCO4)o2)cc1
A: 5 µM

Q: Tell me its IC50 given N#Cc1ccccc1-c1ccc(CSc2nnc(-c3ccncc3)o2)cc1 as the entry.
A: > 100 µM
